We begin with a simple list: items and their reported pIC50.
Target: SHP-2 enzyme (Met1-Leu525) (Homo sapiens, UniProt Q06124)
Construct: synthetized by Origene, Met1-Leu525, cat #TP750155; purchased Origene TP750155
Sequence (Q06124 1-525): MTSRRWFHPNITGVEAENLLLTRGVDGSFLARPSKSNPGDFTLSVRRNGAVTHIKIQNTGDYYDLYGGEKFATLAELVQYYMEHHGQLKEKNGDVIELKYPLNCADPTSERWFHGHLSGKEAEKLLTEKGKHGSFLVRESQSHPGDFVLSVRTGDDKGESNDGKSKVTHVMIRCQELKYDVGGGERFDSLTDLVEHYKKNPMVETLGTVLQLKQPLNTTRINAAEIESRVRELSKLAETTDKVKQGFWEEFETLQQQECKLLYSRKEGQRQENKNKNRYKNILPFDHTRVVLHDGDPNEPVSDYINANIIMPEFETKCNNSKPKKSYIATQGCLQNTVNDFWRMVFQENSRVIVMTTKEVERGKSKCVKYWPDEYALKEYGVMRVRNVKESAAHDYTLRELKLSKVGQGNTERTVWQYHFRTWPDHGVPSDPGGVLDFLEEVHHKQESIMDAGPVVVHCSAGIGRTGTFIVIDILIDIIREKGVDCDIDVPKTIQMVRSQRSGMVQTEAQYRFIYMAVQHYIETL
Assay: SHP2 inhibition enzymatic assay (DiFMUP substrate, IRS1 peptide activation)
Format: biochemical
Details: 0.5 nM SHP-2, 500 nM IRS1 peptide, 75 μM DiFMUP; read-out: SHP2wt - IC50
pIC50: −log10 of the molar value.

In the examples that follow, each entry is paired with its recorded pIC50.
Cc1nc(N2CCC3(CC2)Cn2nccc2[C@H]3N)c(Cl)c(=O)n1-c1cccc(Cl)c1Cl (single isomer, unassigned) [Example 78a] | ≥ 7.30
Cc1nc(N2CCC3(CC2)Cn2nccc2[C@H]3N)cc(=O)n1-c1cccc(Cl)c1Cl (single isomer, unassigned) [Example 77b] | < 6.52
Nc1nccc(Sc2cnc(N3CCC4(CC3)Cn3nccc3[C@H]4N)cn2)c1Cl | ≥ 7.30

Next, consider the following molecule.
Reported pIC50, molecule "Cn1c(N2CCC3(CC2)Cn2nccc2[C@H]3N)nc2[nH]nc(-c3ccnc(N)c3Cl)c2c1=O" : ____
≥ 7.30
